Values were extracted from the supplement of paper PMC11208160.

# method_description: recombinant UMI read abundance after kanamycin selection (control-corrected) (log10(CPM+1)); higher = more efficient recombination; extreme values may be limits of the assay; sequences stand for … in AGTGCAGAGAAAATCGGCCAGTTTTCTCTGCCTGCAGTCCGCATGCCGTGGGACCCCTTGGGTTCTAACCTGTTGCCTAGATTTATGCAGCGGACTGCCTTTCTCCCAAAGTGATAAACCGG…AGGTTGGTTTCACT; site = the 11-nt donor
Class key for recombinant UMI read abundance (log10) values: one (below 0.02), two (0.02 to below 0.8), three (0.8 or more)

# count of solved cases: 7
GCGAATCCATGGACCGGTTTTCCCGGTAATCCGTATTTGGG (site GCGAAGCCTCC): two
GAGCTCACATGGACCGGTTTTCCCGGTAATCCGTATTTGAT (site GAGTTCACTAT): two
TAAGTGTCATGGACCGGTTTTCCCGGTAATCCGTATTTGCA (site TAAGTGTCTTG): three
CTGTCGCCATGGACCGGTTTTCCCGGTAATCCGTATTTGCG (site CTGTCGCCTCG): one
ACATCTGCATGGACCGGTTTTCCCGGTAATCCGTATTTGTG (site ACATCTGCTCA): three
CGAAGTGCATGGACCGGTTTTCCCGGTAATCCGTATTTGCC (site CGAAGTGCTGG): two
GCTAAGCCATGGACCGGTTTTCCCGGTAATCCGTATTTGGG (site GCCAAGCCTCC): two

Then this sequence:
Assign a bin to AGCTCCGCATGGACCGGTTTTCCCGGTAATCCGTATTTGGG (site AGCTCTGCTCC)
one

====

# method_description: recombinant barcode read abundance after kanamycin selection (control-corrected) (log10(CPM+1)); higher = more efficient recombination; sequences stand for … in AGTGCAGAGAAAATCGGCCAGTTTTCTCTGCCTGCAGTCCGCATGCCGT…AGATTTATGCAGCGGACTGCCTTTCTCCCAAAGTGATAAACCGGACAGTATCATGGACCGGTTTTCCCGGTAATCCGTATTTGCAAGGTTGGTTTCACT; site = the 11-nt target
measured_parameter: recombinant barcode read abundance (log10)
A bare number is all that is needed in reply.

// solved cases for recombinant barcode read abundance (log10) follow
AGTAGGCCTTGGGTTCTAACCTGTTGCGG (site GGTAGGACTCC): 0.303
ACAATGTCTTGGGTTCTAACCTGTTGCGG (site ACAATGTCTCC): 1.27
GTTGCGGCTTGGGTTCTAACCTGTTGCCT (site GTTTCGGCTAG): 0.34
TAACCCACTTGGGTTCTAACCTGTTGCCT (site TAACCCACTAG): 1.1
TCCTCTCCTTGGGTTCTAACCTGTTGCTT (site TGCCCTCCTAA): 0.0451

Looking for the measured recombinant barcode read abundance (log10) of GTAAAACCTTGGGTTCTAACCTGTTGCCT (site TTAAAACCTAG) , can you help?
0.266

I have this sequence here, CCGCCGGCTTGGGTTCTAACCTGTTGCCT (site CCGCCGGCTAG) , and I need its recorded recombinant barcode read abundance (log10).
0.146

Need recombinant barcode read abundance (log10) of GGTTGTCCTTGGGTTCTAACCTGTTGCGG (site GGTTGTCCTCC) , thanks.
1.2

Would you kindly share the measured recombinant barcode read abundance (log10) for GTCGCCACTTGGGTTCTAACCTGTTGCCT (site GTCGCCACTAG) ?
0.0549

Record request: recombinant barcode read abundance (log10) value, item CATCCGTCTTGGGTTCTAACCTGTTGCCT (site CATCCGCCTAG)
0.0457
